Entry source: patent US7919634B2

Here the recorded solubility at 60 min is given for each entry.
experiment: Solubility of selected FT4 and FT5 compounds in organic solvents (10 mg compound, stepwise 5 mL solvent additions, ultrasonic bath)
Assay type: physicochemical
measurementConditions: CH2Cl2, organic solvent or mixture, thermodynamic from solid, 10 mg compound in 15 mL CH2Cl2, ambient temperature; read-out: Solubility CH2Cl2

>  <smi>
CCCCCCCCCCCCCCCCCc1csc2c1sc1c3scc(CCCCCCCCCCCCCCCCC)c3sc21

>  <solubility at 60 min>
< 2000 µg/mL

$$$$
>  <smi>
CCCCCCCCCCCCCCCCCc1c(-c2cccs2)sc2c1sc1c3sc(-c4cccs4)c(CCCCCCCCCCCCCCCCC)c3sc21

>  <solubility at 60 min>
< 2000 µg/mL

$$$$
>  <smi>
CCCCCCCCCCCCCCCCCc1c(-c2ccccc2)sc2c1sc1c3sc(-c4ccccc4)c(CCCCCCCCCCCCCCCCC)c3sc21

>  <solubility at 60 min>
> 500 µg/mL

$$$$

----------
Here the recorded solubility at 60 min is given for each entry.
experiment: Solubility of selected FT4 and FT5 compounds in organic solvents (10 mg compound, stepwise 5 mL solvent additions, ultrasonic bath)
Type: physicochemical
measurementConditions: toluene, organic solvent or mixture, thermodynamic from solid, 10 mg compound in 5 mL toluene, ambient temperature; read-out: Solubility toluene

>  <smi>
CCCCCCCCCCCCCCCCCc1csc2c1sc1c3scc(CCCCCCCCCCCCCCCCC)c3sc21

>  <solubility at 60 min>
< 2000 µg/mL

$$$$
>  <smi>
CCCCCCCCCCCCCc1csc2c1sc1c3scc(CCCCCCCCCCCCC)c3sc21

>  <solubility at 60 min>
< 2000 µg/mL

$$$$
>  <smi>
CCCCCCCCCCCCCc1c(-c2ccccc2)sc2c1sc1c3sc(-c4ccccc4)c(CCCCCCCCCCCCC)c3sc21

>  <solubility at 60 min>
> 500 µg/mL

$$$$
>  <smi>
CCCCCCCCCCCCCc1c(-c2cccs2)sc2c1sc1c2sc2c3sc(-c4cccs4)c(CCCCCCCCCCCCC)c3sc21

>  <solubility at 60 min>
> 500 µg/mL

$$$$
>  <smi>
CCCCCCCCCCCCCc1c(-c2cccs2)sc2c1sc1c3sc(-c4cccs4)c(CCCCCCCCCCCCC)c3sc21

>  <solubility at 60 min>
> 500 µg/mL

$$$$
>  <smi>
CCCCCCCCCCCCCc1csc2c1sc1c2sc2c3scc(CCCCCCCCCCCCC)c3sc21

>  <solubility at 60 min>
> 500 µg/mL

$$$$
>  <smi>
CCCCCCCCCCCCCCCCCc1c(-c2ccccc2)sc2c1sc1c3sc(-c4ccccc4)c(CCCCCCCCCCCCCCCCC)c3sc21

>  <solubility at 60 min>
> 500 µg/mL

$$$$
>  <smi>
CCCCCCCCCCCCCc1c(-c2ccccc2)sc2c1sc1c2sc2c3sc(-c4ccccc4)c(CCCCCCCCCCCCC)c3sc21

>  <solubility at 60 min>
> 500 µg/mL

$$$$
>  <smi>
CCCCCCCCCCCCCCCCCc1c(-c2cccs2)sc2c1sc1c3sc(-c4cccs4)c(CCCCCCCCCCCCCCCCC)c3sc21

>  <solubility at 60 min>
< 2000 µg/mL

$$$$

----------
Here the recorded solubility at 60 min is given for each entry.
experiment: Solubility of selected FT4 and FT5 compounds in organic solvents (10 mg compound, stepwise 5 mL solvent additions, ultrasonic bath)
Assay type: physicochemical
measurementConditions: toluene, organic solvent or mixture, thermodynamic from solid, 10 mg compound in 15 mL toluene, ambient temperature; read-out: Solubility toluene

>  <smi>
CCCCCCCCCCCCCCCCCc1c(-c2cccs2)sc2c1sc1c3sc(-c4cccs4)c(CCCCCCCCCCCCCCCCC)c3sc21

>  <solubility at 60 min>
> 500 µg/mL

$$$$
>  <smi>
CCCCCCCCCCCCCCCCCc1csc2c1sc1c3scc(CCCCCCCCCCCCCCCCC)c3sc21

>  <solubility at 60 min>
< 2000 µg/mL

$$$$

----------
experiment: Solubility of selected FT4 and FT5 compounds in organic solvents (10 mg compound, stepwise 5 mL solvent additions, ultrasonic bath)
Assay type: physicochemical
measurementConditions: toluene, organic solvent or mixture, thermodynamic from solid, 10 mg compound in 10 mL toluene, ambient temperature; read-out: Solubility toluene
Protocol: Solubility of Selected FT4 And FT5 Compounds Table 1 provides a solubility comparison of some α-, α′-unsubstituted, β-, β′-alkyl substituted FT4 (and FT5), with some α-, α′-substituted, β-, β′-alkyl substituted FT4 (and FT5) compounds. General Procedure: 10 mg of a FT4 or FT5 compound was mixed with 5.0 mL of a specified solvent and then sealed in a screw-top glass vial. […]
measurementKind: solubility at 60 min

>  <smi>
CCCCCCCCCCCCCCCCCc1csc2c1sc1c3scc(CCCCCCCCCCCCCCCCC)c3sc21

>  <observedResult>
< 2000 µg/mL

$$$$
>  <smi>
CCCCCCCCCCCCCc1csc2c1sc1c3scc(CCCCCCCCCCCCC)c3sc21

>  <observedResult>
> 500 µg/mL

$$$$
>  <smi>
CCCCCCCCCCCCCCCCCc1c(-c2cccs2)sc2c1sc1c3sc(-c4cccs4)c(CCCCCCCCCCCCCCCCC)c3sc21

>  <observedResult>
< 2000 µg/mL

$$$$
>  <smi>
CCCCCCCCCCCCCCCCCc1c(-c2ccccc2)sc2c1sc1c3sc(-c4ccccc4)c(CCCCCCCCCCCCCCCCC)c3sc21

>  <observedResult>
> 500 µg/mL

$$$$

----------
experiment: Solubility of selected FT4 and FT5 compounds in organic solvents (10 mg compound, stepwise 5 mL solvent additions, ultrasonic bath)
Assay type: physicochemical
measurementConditions: hexane, organic solvent or mixture, thermodynamic from solid, 10 mg compound in 20 mL hexane, ambient temperature; read-out: Solubility hexane
Experimental: Solubility of Selected FT4 And FT5 Compounds Table 1 provides a solubility comparison of some α-, α′-unsubstituted, β-, β′-alkyl substituted FT4 (and FT5), with some α-, α′-substituted, β-, β′-alkyl substituted FT4 (and FT5) compounds. General Procedure: 10 mg of a FT4 or FT5 compound was mixed with 5.0 mL of a specified solvent and then sealed in a screw-top glass vial. […]
Here the recorded solubility at 60 min is given for each entry.

>  <smi>
CCCCCCCCCCCCCCCCCc1csc2c1sc1c3scc(CCCCCCCCCCCCCCCCC)c3sc21

>  <solubility at 60 min>
< 2000 µg/mL

$$$$
>  <smi>
CCCCCCCCCCCCCCCCCc1c(-c2cccs2)sc2c1sc1c3sc(-c4cccs4)c(CCCCCCCCCCCCCCCCC)c3sc21

>  <solubility at 60 min>
< 2000 µg/mL

$$$$
>  <smi>
CCCCCCCCCCCCCc1c(-c2ccccc2)sc2c1sc1c3sc(-c4ccccc4)c(CCCCCCCCCCCCC)c3sc21

>  <solubility at 60 min>
> 500 µg/mL

$$$$
>  <smi>
CCCCCCCCCCCCCc1c(-c2cccs2)sc2c1sc1c2sc2c3sc(-c4cccs4)c(CCCCCCCCCCCCC)c3sc21

>  <solubility at 60 min>
< 2000 µg/mL

$$$$
>  <smi>
CCCCCCCCCCCCCc1c(-c2cccs2)sc2c1sc1c3sc(-c4cccs4)c(CCCCCCCCCCCCC)c3sc21

>  <solubility at 60 min>
< 2000 µg/mL

$$$$
>  <smi>
CCCCCCCCCCCCCc1csc2c1sc1c3scc(CCCCCCCCCCCCC)c3sc21

>  <solubility at 60 min>
< 2000 µg/mL

$$$$
>  <smi>
CCCCCCCCCCCCCCCCCc1c(-c2ccccc2)sc2c1sc1c3sc(-c4ccccc4)c(CCCCCCCCCCCCCCCCC)c3sc21

>  <solubility at 60 min>
< 2000 µg/mL

$$$$

----------
experiment: Solubility of selected FT4 and FT5 compounds in organic solvents (10 mg compound, stepwise 5 mL solvent additions, ultrasonic bath)
Assay type: physicochemical
measurementConditions: hexane, organic solvent or mixture, thermodynamic from solid, 10 mg compound in 15 mL hexane, ambient temperature; read-out: Solubility hexane

>  <smi>
CCCCCCCCCCCCCc1c(-c2cccs2)sc2c1sc1c3sc(-c4cccs4)c(CCCCCCCCCCCCC)c3sc21

>  <solubility at 60 min>
< 2000 µg/mL

$$$$
>  <smi>
CCCCCCCCCCCCCc1c(-c2cccs2)sc2c1sc1c2sc2c3sc(-c4cccs4)c(CCCCCCCCCCCCC)c3sc21

>  <solubility at 60 min>
< 2000 µg/mL

$$$$
>  <smi>
CCCCCCCCCCCCCCCCCc1c(-c2ccccc2)sc2c1sc1c3sc(-c4ccccc4)c(CCCCCCCCCCCCCCCCC)c3sc21

>  <solubility at 60 min>
< 2000 µg/mL

$$$$

----------
Here the recorded solubility at 60 min is given for each entry.
experiment: Solubility of selected FT4 and FT5 compounds in organic solvents (10 mg compound, stepwise 5 mL solvent additions, ultrasonic bath)
Format: physicochemical
measurementConditions: hexane, organic solvent or mixture, thermodynamic from solid, 10 mg compound in 10 mL hexane, ambient temperature; read-out: Solubility hexane
measurementKind: solubility at 60 min

>  <smi>
CCCCCCCCCCCCCc1c(-c2cccs2)sc2c1sc1c2sc2c3sc(-c4cccs4)c(CCCCCCCCCCCCC)c3sc21

>  <observedResult>
< 2000 µg/mL

$$$$
>  <smi>
CCCCCCCCCCCCCCCCCc1c(-c2cccs2)sc2c1sc1c3sc(-c4cccs4)c(CCCCCCCCCCCCCCCCC)c3sc21

>  <observedResult>
< 2000 µg/mL

$$$$
>  <smi>
CCCCCCCCCCCCCc1csc2c1sc1c2sc2c3scc(CCCCCCCCCCCCC)c3sc21

>  <observedResult>
> 500 µg/mL

$$$$
>  <smi>
CCCCCCCCCCCCCc1c(-c2cccs2)sc2c1sc1c3sc(-c4cccs4)c(CCCCCCCCCCCCC)c3sc21

>  <observedResult>
< 2000 µg/mL

$$$$
